# TESTED ON: Stromelysin-1 (Homo sapiens, UniProt P08254)
# Sequence (P08254 whole entry): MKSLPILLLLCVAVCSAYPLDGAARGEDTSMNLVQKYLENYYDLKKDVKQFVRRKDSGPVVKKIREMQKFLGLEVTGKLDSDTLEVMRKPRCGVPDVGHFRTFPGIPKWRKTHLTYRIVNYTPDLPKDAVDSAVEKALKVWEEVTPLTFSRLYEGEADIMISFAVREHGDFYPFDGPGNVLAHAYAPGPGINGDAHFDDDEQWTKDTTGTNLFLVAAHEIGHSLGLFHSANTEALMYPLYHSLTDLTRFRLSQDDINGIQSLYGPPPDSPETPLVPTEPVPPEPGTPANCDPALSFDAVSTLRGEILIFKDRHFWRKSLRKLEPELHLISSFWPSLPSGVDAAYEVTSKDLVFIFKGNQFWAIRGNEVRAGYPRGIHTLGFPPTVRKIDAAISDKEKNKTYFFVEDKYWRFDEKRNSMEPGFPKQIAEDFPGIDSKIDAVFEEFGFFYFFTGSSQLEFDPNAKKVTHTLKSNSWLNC
Note to self: Ki under 1 µM means condition met, ties and anything higher get condition not met.

COC(=O)c1ccc(Oc2ccc(N3C(=O)CCC34C(=O)NC(=O)NC4=O)cc2)cc1	condition not met
CCC1CC(=O)N(c2ccc(Oc3ccccc3)cc2)C12C(=O)NC(=O)NC2=O (stereo in doubt)	condition met
O=C1NC(=O)C2(CCC(=O)N2c2ccc(Oc3ccc(Cl)cc3)cc2)C(=O)N1	condition met
CCC1CC(=O)N(c2ccc(Oc3ccccc3)cc2)C12C(=O)NC(=O)NC2=O (single isomer, unassigned)	condition not met
O=C1NC(=O)C2(CCC(=O)N2c2ccc(Oc3ccc(C(=O)O)cc3)cc2)C(=O)N1	condition not met

Ki under 1 µM? Item: `O=C1NC(=O)C2(CCC(=O)N2c2ccc(Oc3ccccc3)cc2)C(=O)N1`
condition not met

// same read-out, input: `O=C1NC(=O)C2(CCC(=O)N2c2ccc(Oc3ccc(Oc4ccccc4)cc3)cc2)C(=O)N1`
condition met
